- assayProtocol: Cmax in CD-1 mouse at 20 mg/kg, po by LC-MS/MS analysis
- Format: ADME, organism-based
- Set-up: route oral, dose 20 mg/kg
- condition: in vivo
recordedEndpoint: Cmax
Remember to put the unit after the number in your answer.

Please report the recorded Cmax for COc1cc2c(cc1OC)CN(CCc1ccc(-n3nnc(-c4cc(Oc5cccnc5)ccc4NC(=O)c4cc(=O)c5ccccc5o4)n3)cc1)CC2 .
3.4 nM

---

- System: MDR1
- assayProtocol: Apparent permeability across basolateral side to apical side in MDCKII-MDR1 cells at 3 uM by LC/MS/MS analysis
- Assay type: ADME, cell-based, Canis lupus familiaris
- condition: dog, MDCK-MDR1
Below: a set of entries, each annotated with reported Papp B→A at 3 µM.

Consider the following illustrative entries.
sampleSmiles: COc1cc(NC(=O)c2cc(=O)c3ccccc3o2)c(-c2nnn(-c3ccc(CCN4CCn5cncc5C4)cc3)n2)cc1OCc1ccccc1
Papp B→A at 3 µM: < 0.02 ×10⁻⁶ cm/s
//
sampleSmiles: COc1cc2c(cc1OC)CN(CCc1ccc(-n3nnc(-c4cc(Oc5cccnc5)ccc4NC(=O)c4cc(=O)c5ccccc5o4)n3)cc1)CC2
Papp B→A at 3 µM: 0.002 ×10⁻⁶ cm/s

Then this compound:
Please report the recorded Papp B→A at 3 µM for COc1cc(NC(=O)c2cc(=O)c3ccccc3o2)c(-c2nnn(-c3ccc(CCN4CCc5cnccc5C4)cc3)n2)cc1OC .
< 0.02 ×10⁻⁶ cm/s

Where do the numbers come from? From ChEMBL document CHEMBL5038632.
